systemTested: panel of 255 wild-type kinases (Homo sapiens)
Sequence (Q9NRA0 1-654): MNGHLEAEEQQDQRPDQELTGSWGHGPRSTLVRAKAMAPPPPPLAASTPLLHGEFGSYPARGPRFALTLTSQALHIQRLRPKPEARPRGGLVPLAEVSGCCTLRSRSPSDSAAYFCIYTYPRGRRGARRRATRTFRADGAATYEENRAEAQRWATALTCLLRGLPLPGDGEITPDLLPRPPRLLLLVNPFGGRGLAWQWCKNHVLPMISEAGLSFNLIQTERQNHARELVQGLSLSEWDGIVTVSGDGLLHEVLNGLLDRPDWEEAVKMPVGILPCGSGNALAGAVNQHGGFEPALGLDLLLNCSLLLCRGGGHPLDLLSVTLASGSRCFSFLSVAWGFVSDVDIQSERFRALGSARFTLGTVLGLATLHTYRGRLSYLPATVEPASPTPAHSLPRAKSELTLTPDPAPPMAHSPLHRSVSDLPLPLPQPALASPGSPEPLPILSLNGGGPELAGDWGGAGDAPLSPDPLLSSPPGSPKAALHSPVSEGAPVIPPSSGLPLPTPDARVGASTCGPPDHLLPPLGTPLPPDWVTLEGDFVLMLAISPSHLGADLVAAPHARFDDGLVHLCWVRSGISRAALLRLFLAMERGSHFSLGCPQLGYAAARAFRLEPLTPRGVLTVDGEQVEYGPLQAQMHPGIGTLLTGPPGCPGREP
measurementDescription: Kinase panel profiling at 1 µmol/L (MSA or IMAP), percentage inhibition
Assay type: biochemical
conditionParameters: kinase SPHK2; 1 µmol/L single concentration; read-out: %-inhibition at 1 µmol/L, SPHK2
assayEndpoint: inhibition at 1 µM (%)
Numeric only. Scale: %

Example entries begin here.
FC(F)(F)c1ccc(CNc2ccc(Cc3c[nH]c4ncc(Cl)cc34)cn2)cn1 :: 7
CCN1CCN(c2ccc(Nc3cc(N(C)C(=O)Nc4c(Cl)c(OC)cc(OC)c4Cl)ncn3)cc2)CC1 :: 2

(Q) If you can, please state the reported inhibition at 1 µM value of `C=CC(=O)N1CCC([C@@H]2CCNc3c(C(N)=O)c(-c4ccc(Oc5ccccc5)cc4)nn32)CC1` .
(A) -6.64

(Q) Return reported inhibition at 1 µM; argument: `Cn1cnc2c(F)c(Nc3ccc(Br)cc3Cl)c(C(=O)NOCCO)cc21`
(A) -4

(Q) Requested field: inhibition at 1 µM. Item: `Cn1cc(-c2cc3c(N4CCN(c5ncc([C@@](C)(N)c6ccc(F)cc6)cn5)CC4)ncnn3c2)cn1`
(A) 0.914

###

systemTested: UniProt:P22455
Sequence (P22455 22-802): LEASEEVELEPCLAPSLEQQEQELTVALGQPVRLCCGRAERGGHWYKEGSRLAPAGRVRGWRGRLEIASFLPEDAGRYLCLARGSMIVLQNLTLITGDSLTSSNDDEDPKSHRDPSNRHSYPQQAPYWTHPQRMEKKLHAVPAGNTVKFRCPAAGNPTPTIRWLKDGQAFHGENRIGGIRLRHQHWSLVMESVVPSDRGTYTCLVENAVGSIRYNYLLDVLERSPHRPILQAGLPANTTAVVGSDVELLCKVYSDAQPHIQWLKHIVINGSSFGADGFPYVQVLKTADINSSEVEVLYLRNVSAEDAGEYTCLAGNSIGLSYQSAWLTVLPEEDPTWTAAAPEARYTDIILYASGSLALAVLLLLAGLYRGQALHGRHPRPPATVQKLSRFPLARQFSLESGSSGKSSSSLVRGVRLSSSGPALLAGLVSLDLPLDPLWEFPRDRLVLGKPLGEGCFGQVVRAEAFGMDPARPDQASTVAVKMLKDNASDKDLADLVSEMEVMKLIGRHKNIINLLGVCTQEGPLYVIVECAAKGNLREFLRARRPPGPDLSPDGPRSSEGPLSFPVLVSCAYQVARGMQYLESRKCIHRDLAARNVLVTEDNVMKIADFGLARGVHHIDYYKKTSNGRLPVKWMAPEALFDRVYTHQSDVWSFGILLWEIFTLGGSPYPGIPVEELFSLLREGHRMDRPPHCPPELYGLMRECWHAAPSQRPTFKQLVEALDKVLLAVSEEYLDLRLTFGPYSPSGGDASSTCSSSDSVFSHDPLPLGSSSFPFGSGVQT
measurementDescription: Kinase panel profiling at 1 µmol/L (MSA or IMAP), percentage inhibition
Assay type: biochemical
conditionParameters: kinase FGFR4; 1 µmol/L single concentration; read-out: %-inhibition at 1 µmol/L, FGFR4
assayEndpoint: inhibition at 1 µM (%)
Note: unit % is implicit; provide only the numeric part.

Solved cases (3 shown):
C[C@H](Nc1ncnc2nc[nH]c12)c1cc2cccc(Cl)c2c(=O)n1-c1ccccc1 :: 5
CO[C@]1(C(=O)N[C@@H](C)c2ccc(-n3cc(F)cn3)nc2)CC[C@H](c2nc(C)cc(Nc3cc(C)[nH]n3)n2)CC1 :: 85
Cn1cc(-c2cc3c(N4CCN(c5ncc([C@@](C)(N)c6ccc(F)cc6)cn5)CC4)ncnn3c2)cn1 :: 41

(Q) Fill blank: measured inhibition at 1 µM of the molecule `FC(F)(F)c1ccc(CNc2ccc(Cc3c[nH]c4ncc(Cl)cc34)cn2)cn1` is ____.
(A) 7.42

(Q) What value of inhibition at 1 µM has been reported for the following molecule? `C[C@H]1Oc2cc(cnc2N)-c2c(nn(C)c2C#N)CN(C)C(=O)c2ccc(F)cc21`
(A) 20

(Q) Reported inhibition at 1 µM for `CN1CCN(c2ccc(C(=O)Nc3n[nH]c4ccc(Cc5cc(F)cc(F)c5)cc34)c(NC3CCOCC3)c2)CC1` : what is it?
(A) 38

###

Items are presented alongside their recorded inhibition at 1 µM.
systemTested: panel of 255 wild-type kinases (Homo sapiens)
Sequence (Q96PF2 1-358): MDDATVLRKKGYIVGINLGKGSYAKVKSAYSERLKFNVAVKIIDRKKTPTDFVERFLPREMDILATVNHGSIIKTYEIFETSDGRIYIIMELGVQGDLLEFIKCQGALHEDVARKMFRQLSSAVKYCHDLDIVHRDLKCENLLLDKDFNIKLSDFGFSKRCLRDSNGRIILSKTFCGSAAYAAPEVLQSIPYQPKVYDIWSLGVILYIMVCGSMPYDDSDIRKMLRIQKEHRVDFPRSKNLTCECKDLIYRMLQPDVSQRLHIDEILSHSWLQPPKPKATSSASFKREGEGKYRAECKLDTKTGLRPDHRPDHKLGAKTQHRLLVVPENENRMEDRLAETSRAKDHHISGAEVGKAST
measurementDescription: Kinase panel profiling at 1 µmol/L (MSA or IMAP), percentage inhibition
Assay type: biochemical
conditionParameters: kinase TSSK2; 1 µmol/L single concentration; read-out: %-inhibition at 1 µmol/L, TSSK2
Expressed in %, but write only the number.

COC(=O)N[C@@H](C)CNc1nccc(-c2cn(C(C)C)nc2-c2cc(Cl)cc(NS(C)(=O)=O)c2F)n1 :: -2.44
CN1CCN(c2ccc(C(=O)Nc3n[nH]c4ccc(Cc5cc(F)cc(F)c5)cc34)c(NC3CCOCC3)c2)CC1 :: -7
COc1cc2ncnc(Nc3ccc(F)c(Cl)c3)c2cc1NC(=O)/C=C/CN1CCCCC1 :: 1.2

(Q) Bench note: what inhibition at 1 µM did `Cn1cnc2c(F)c(Nc3ccc(Br)cc3F)c(C(=O)NOCCO)cc21` show?
(A) -5

###

Overview of reported IC50 across a group of compounds:
System: 134 cancer cell lines
measurementDescription: Cell viability assay (ATPlite, 72 hours), IC50 on cancer cell line panel
conditionParameters: Homo sapiens, HEC-1B, read-out: IC50 in cell proliferation assay, HEC-1-B cell line (EGFR p.A864V)
Lab book: enter the figure in µM, no units written.

(Q) Hello, I am looking for reported IC50 with 134 cancer cell lines for Cc1cc(Nc2ncnc3ccc(NC4=NC(C)(C)CO4)cc23)ccc1Oc1ccn2ncnc2c1 [tucatinib] . Could you help?
(A) 1.62

(Q) # query: IC50 | item CC(=O)Nc1cccc(-n2c(=O)n(C3CC3)c(=O)c3c(Nc4ccc(I)cc4F)n(C)c(=O)c(C)c32)c1 [trametinib] | system: 134 cancer cell lines
(A) 0.00636

(Q) Lab note: need IC50 with 134 cancer cell lines for entry COC(=O)N[C@@H](C)CNc1nccc(-c2cn(C(C)C)nc2-c2cc(Cl)cc(NS(C)(=O)=O)c2F)n1 [encorafenib] , please look it up.
(A) 2.1

(Q) Lab note: need IC50 with 134 cancer cell lines for entry C[C@H](Nc1ncnc2nc[nH]c12)c1cc2cccc(Cl)c2c(=O)n1-c1ccccc1 [duvelisib] , please look it up.
(A) 4.51

(Q) Give the reported IC50 for Cn1cnc2c(F)c(Nc3ccc(Br)cc3F)c(C(=O)NOCCO)cc21 [binimetinib] (system: 134 cancer cell lines).
(A) 0.012

###

Recorded inhibition at 1 µM by entry
systemTested: panel of 255 wild-type kinases (Homo sapiens, UniProt P42684)
Sequence (P42684 whole entry): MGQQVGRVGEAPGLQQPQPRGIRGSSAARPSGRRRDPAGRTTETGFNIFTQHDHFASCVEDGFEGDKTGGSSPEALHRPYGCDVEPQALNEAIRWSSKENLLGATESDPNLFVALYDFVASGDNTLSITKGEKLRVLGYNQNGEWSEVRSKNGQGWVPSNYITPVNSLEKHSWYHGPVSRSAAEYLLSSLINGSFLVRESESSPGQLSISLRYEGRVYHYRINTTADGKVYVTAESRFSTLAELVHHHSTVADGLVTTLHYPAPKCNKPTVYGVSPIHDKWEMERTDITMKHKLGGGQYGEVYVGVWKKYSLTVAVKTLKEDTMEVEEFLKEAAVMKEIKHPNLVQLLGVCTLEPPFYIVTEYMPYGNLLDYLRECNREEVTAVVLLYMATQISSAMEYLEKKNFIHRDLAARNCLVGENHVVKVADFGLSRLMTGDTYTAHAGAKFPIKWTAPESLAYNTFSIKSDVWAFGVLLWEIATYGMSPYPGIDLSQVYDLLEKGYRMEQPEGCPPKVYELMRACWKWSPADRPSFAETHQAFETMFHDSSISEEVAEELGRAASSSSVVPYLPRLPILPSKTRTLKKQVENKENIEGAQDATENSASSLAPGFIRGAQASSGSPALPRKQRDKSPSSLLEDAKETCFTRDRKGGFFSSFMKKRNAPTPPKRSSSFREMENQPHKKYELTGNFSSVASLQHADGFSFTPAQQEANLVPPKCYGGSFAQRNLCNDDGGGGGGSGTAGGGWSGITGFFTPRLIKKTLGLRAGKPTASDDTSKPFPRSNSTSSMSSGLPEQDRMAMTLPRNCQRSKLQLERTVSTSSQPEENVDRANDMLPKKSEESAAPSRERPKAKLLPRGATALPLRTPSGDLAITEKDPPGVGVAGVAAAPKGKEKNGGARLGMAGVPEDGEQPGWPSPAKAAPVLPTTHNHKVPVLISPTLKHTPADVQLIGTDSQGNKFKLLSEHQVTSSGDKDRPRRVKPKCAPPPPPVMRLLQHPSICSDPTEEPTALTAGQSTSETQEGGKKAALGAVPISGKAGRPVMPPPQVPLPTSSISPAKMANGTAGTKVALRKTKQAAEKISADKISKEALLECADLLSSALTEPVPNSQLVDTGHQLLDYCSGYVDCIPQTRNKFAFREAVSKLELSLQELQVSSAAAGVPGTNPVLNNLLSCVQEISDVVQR
measurementDescription: Kinase panel profiling at 1 µmol/L (MSA or IMAP), percentage inhibition
Assay type: biochemical
conditionParameters: ARG kinase assay; 1 µmol/L single concentration; read-out: %-inhibition ARG
Express your answer as a number followed by its unit.

Observe how each entry below is paired with its result.
CN1CCN(c2ccc(C(=O)Nc3n[nH]c4ccc(Cc5cc(F)cc(F)c5)cc34)c(NC3CCOCC3)c2)CC1 :: 83%
CCn1c(=O)c(-c2cc(NC(=O)Nc3ccccc3)c(F)cc2Br)cc2cnc(NC)cc21 :: 56%
CO[C@]1(C(=O)N[C@@H](C)c2ccc(-n3cc(F)cn3)nc2)CC[C@H](c2nc(C)cc(Nc3cc(C)[nH]n3)n2)CC1 :: 38%

(Q) # get_value(readout= inhibition at 1 µM, system= panel of 255 wild-type kinases (Homo sapiens, UniProt P42684)) for `O=C(Nc1cnn2ccc(N3CCC[C@@H]3c3cc(F)ccc3F)nc12)N1CC[C@H](O)C1`
(A) -0.835%

(Q) Query inhibition at 1 µM on panel of 255 wild-type kinases (Homo sapiens, UniProt P42684) for `Cn1cc(-c2cc3c(N4CCN(c5ncc([C@@](C)(N)c6ccc(F)cc6)cn5)CC4)ncnn3c2)cn1`
(A) 47%

(Q) State its inhibition at 1 µM on panel of 255 wild-type kinases (Homo sapiens, UniProt P42684): `Cn1cnc2c(F)c(Nc3ccc(Br)cc3Cl)c(C(=O)NOCCO)cc21`
(A) 1.6%

(Q) What value of inhibition at 1 µM on panel of 255 wild-type kinases (Homo sapiens, UniProt P42684) does `Cn1cnc2c(F)c(Nc3ccc(Br)cc3F)c(C(=O)NOCCO)cc21` have?
(A) 1.39%

(Q) State its inhibition at 1 µM on panel of 255 wild-type kinases (Homo sapiens, UniProt P42684): `CCN1C(=O)N(c2c(F)c(OC)cc(OC)c2F)Cc2cnc3[nH]c(CN4CCOCC4)cc3c21`
(A) 7%
